Can you tell me protein stability index for the items I'm about to list?
B1: PTPN9 (parent)
chain: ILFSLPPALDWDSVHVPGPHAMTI

Variants of: B1
Assay: protein stability index of a GFP-peptide fusion (GPS, HEK-293T) (PSI 1-6); higher = more stable;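 also: lentivirally expressed fusions sorted by FACS into six bins by GFP to DsRed ratio, PSI derived from sequencing read proportions per bin multiplied by bin number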
Conditions: c terminus: a fixed tail appended
Respond numerically, and do not add a unit to the figure.

If you can, please state the reported protein stability index value of L5I .
1.33

If you can, please state the reported protein stability index value of M22L .
2.77

If you can, please state the reported protein stability index value of S4V .
2.49

If you can, please state the reported protein stability index value of V14T .
2.38

If you can, please state the reported protein stability index value of H20F .
3.16

If you can, please state the reported protein stability index value of S13K .
2.36

If you can, please state the reported protein stability index value of T23W .
2.7

If you can, please state the reported protein stability index value of D10F .
2.68

If you can, please state the reported protein stability index value of P6C .
2.37

If you can, please state the reported protein stability index value of L9C .
2.52

If you can, please state the reported protein stability index value of A8R .
2.43

If you can, please state the reported protein stability index value of F3Q .
3.1

If you can, please state the reported protein stability index value of I1Q .
1.7

If you can, please state the reported protein stability index value of P7C .
2.03

If you can, please state the reported protein stability index value of V14C .
2.02

If you can, please state the reported protein stability index value of P19Q .
2.55

If you can, please state the reported protein stability index value of T23I .
2.96

If you can, please state the reported protein stability index value of S13A .
1.88

If you can, please state the reported protein stability index value of V14Q .
2.57

If you can, please state the reported protein stability index value of P19V .
3.51

If you can, please state the reported protein stability index value of L5K .
2.25

If you can, please state the reported protein stability index value of H20I .
2.93

If you can, please state the reported protein stability index value of P19R .
2.65

If you can, please state the reported protein stability index value of P7R .
2.18

If you can, please state the reported protein stability index value of F3L .
4.01

If you can, please state the reported protein stability index value of I1E .
1.71

If you can, please state the reported protein stability index value of I24L .
1.99

If you can, please state the reported protein stability index value of D10W .
1.9

If you can, please state the reported protein stability index value of D12H .
2.07

If you can, please state the reported protein stability index value of S4K .
1.98

If you can, please state the reported protein stability index value of H20P .
1.82

If you can, please state the reported protein stability index value of H15V .
3.57

If you can, please state the reported protein stability index value of P6G .
1.32
